- Test system: Bacteroides caccae
- assay_overview: growth AUC relative to DMSO control (median of replicates) (fraction); higher = more growth (less inhibition), active = hit call of the paper
- protocol_conditions: 20 µM; 24 h
observed_property: growth AUC

Task: Give the reported value of growth AUC for this record: CCCCC(CC)COC(=O)COc1ccc(Cl)cc1C (stereo not drawn)
Result: 0.995 (inactive)

Task: Give the reported value of growth AUC for this record: `O=C1NCCN1`
Result: 1.02 (inactive)

Task: Give the reported value of growth AUC for this record: `Clc1ccc(CSc2ccc(Cl)cc2)cc1`
Result: 1.02 (inactive)

Next:
Task: Give the reported value of growth AUC for this record: `CN(C)C(=O)Nc1ccc(Oc2ccc(Cl)cc2)cc1`
Result: 0.863 (inactive)

Task: Give the reported value of growth AUC for this record: `NS(=O)(=O)[O-].[NH4+]`
Result: 1.01 (inactive)

Task: Give the reported value of growth AUC for this record: `CCCN(CCOc1c(Cl)cc(Cl)cc1Cl)C(N)=O`
Result: 0.899 (inactive)

Task: Give the reported value of growth AUC for this record: CC(C)(NC(=O)C(Br)C(C)(C)C)c1ccccc1 (stereo not drawn)
Result: 1.01 (inactive)

Task: Give the reported value of growth AUC for this record: `CCNC(=O)[C@@H](C)OC(=O)Nc1ccccc1`
Result: 0.991 (inactive)

* * *

Each entry below carries its reported growth AUC.
- System: Bifidobacterium longum subsp. longum
- assay_overview: growth AUC relative to DMSO control (median of replicates) (fraction); higher = more growth (less inhibition), active = hit call of the paper
- protocol_conditions: 20 µM; 24 h
Please give only the number in your answer, with no unit.

Task: State recorded growth AUC with Bifidobacterium longum subsp. longum, entry CCCCCC(C)OC(=O)COc1ccc(Cl)c2cccnc12 (stereo not drawn) , no comment.
Result: 0.953

Task: State recorded growth AUC with Bifidobacterium longum subsp. longum, entry CC(C)CCCCCOC(=O)C(C)Oc1ccc(Cl)cc1Cl (stereo not drawn) , no comment.
Result: 0.969

Task: State recorded growth AUC with Bifidobacterium longum subsp. longum, entry `COC(=O)c1ccc(I)cc1S(=O)(=O)[N-]C(=O)Nc1nc(C)nc(OC)n1.[Na+]` , no comment.
Result: 1.01

Task: State recorded growth AUC with Bifidobacterium longum subsp. longum, entry `Clc1ccc(CSc2ccc(Cl)cc2)cc1` , no comment.
Result: 1.02

Next:
Task: State recorded growth AUC with Bifidobacterium longum subsp. longum, entry CCOC(=O)C(C)N(C(=O)c1ccccc1)c1ccc(Cl)c(Cl)c1 (stereo not drawn) , no comment.
Result: 0.945

Task: State recorded growth AUC with Bifidobacterium longum subsp. longum, entry `CCOCN(C(=O)C(=O)O)c1c(C)cccc1CC` , no comment.
Result: 1.01

Task: State recorded growth AUC with Bifidobacterium longum subsp. longum, entry `FC(F)(F)C(=NOCC1OCCO1)c1ccc(Cl)cc1` , no comment.
Result: 0.988

Task: State recorded growth AUC with Bifidobacterium longum subsp. longum, entry CC1(C)C(C(=O)OC(C#N)c2cccc(Oc3ccccc3)c2)C1C(Br)C(Br)(Br)Br (stereo not drawn) , no comment.
Result: 1.03

Task: State recorded growth AUC with Bifidobacterium longum subsp. longum, entry COC(=O)c1ccc(C)cc1C1=NC(C)(C(C)C)C(=O)N1 (racemic) , no comment.
Result: 1

Task: State recorded growth AUC with Bifidobacterium longum subsp. longum, entry `CCNc1nc(NC(C)(C)C)nc(OC)n1` , no comment.
Result: 1.02

Task: State recorded growth AUC with Bifidobacterium longum subsp. longum, entry COC(=O)CC(NC(=O)[C@@H](NC(=O)OC(C)C)C(C)C)c1ccc(Cl)cc1 (stereo partly drawn) , no comment.
Result: 1.01

Task: State recorded growth AUC with Bifidobacterium longum subsp. longum, entry `CN(C)C(=O)Nc1ccccc1` , no comment.
Result: 1.01

Task: State recorded growth AUC with Bifidobacterium longum subsp. longum, entry `COCCOc1ccccc1S(=O)(=O)NC(=O)Nc1nc(OC)nc(OC)n1` , no comment.
Result: 1.06

Task: State recorded growth AUC with Bifidobacterium longum subsp. longum, entry `CCOC(=O)c1ccc(O)cc1` , no comment.
Result: 1.02

Task: State recorded growth AUC with Bifidobacterium longum subsp. longum, entry `NC(=S)Nc1cccc2ccccc12` , no comment.
Result: 1.06

* * *

- Test system: Roseburia intestinalis
- assay_overview: growth AUC relative to DMSO control (median of replicates) (fraction); higher = more growth (less inhibition), active = hit call of the paper
- protocol_conditions: 20 µM; 24 h
Decision: growth AUC >= 1 yields 1, all other cases yield 0.

Examples with answers:
Task: Hello, I need to know if `CC(C)N(C(=O)CS(=O)(=O)[O-])c1ccc(F)cc1.[Na+]` has measured growth AUC not below 1. Thanks!
Result: 1

Task: Hello, I need to know if `O=[N+](Nc1ccccc1)c1ccccc1` has measured growth AUC not below 1. Thanks!
Result: 0

Task: Hello, I need to know if `O=C1NCCN1` has measured growth AUC not below 1. Thanks!
Result: 1

Next:
Task: Hello, I need to know if `CC(C)Nc1nc(N)nc(Cl)n1` has measured growth AUC not below 1. Thanks!
Result: 1

Task: Hello, I need to know if `N#Cc1cc(Cl)c(O)c(Cl)c1` has measured growth AUC not below 1. Thanks!
Result: 1

Task: Hello, I need to know if CC1COc2ccccc2N1C(=O)C(Cl)Cl (stereo not drawn) has measured growth AUC not below 1. Thanks!
Result: 0

Task: Hello, I need to know if `CSC(=O)c1cccc2nnsc12` has measured growth AUC not below 1. Thanks!
Result: 0

Task: Hello, I need to know if `CCOC(=O)c1nc(C(Cl)(Cl)Cl)n(-c2ccc(Cl)cc2Cl)n1` has measured growth AUC not below 1. Thanks!
Result: 0

Task: Hello, I need to know if `COC(=O)c1c(Cl)nn(C)c1S(=O)(=O)NC(=O)Nc1nc(OC)cc(OC)n1` has measured growth AUC not below 1. Thanks!
Result: 1

Task: Hello, I need to know if `CN(C)C(=O)c1cccnc1S(N)(=O)=O` has measured growth AUC not below 1. Thanks!
Result: 1

Task: Hello, I need to know if CCCCCCC(C)OC(=O)COc1nc(F)c(Cl)c(N)c1Cl (stereo not drawn) has measured growth AUC not below 1. Thanks!
Result: 0

Task: Hello, I need to know if `CCOC(=O)c1ccc(O)cc1` has measured growth AUC not below 1. Thanks!
Result: 0

Task: Hello, I need to know if CCCCC(CC)COC(=O)COc1cc(Cl)c(Cl)cc1Cl (stereo not drawn) has measured growth AUC not below 1. Thanks!
Result: 0

Task: Hello, I need to know if CC(C)N(C(=O)CS(=O)CC(=O)O)c1ccc(F)cc1 (stereo not drawn) has measured growth AUC not below 1. Thanks!
Result: 1

Task: Hello, I need to know if `C=C1C[C@]23C[C@@]1(O)CC[C@H]2[C@@]12C=C[C@H](O)[C@@](C)(C(=O)O1)[C@H]2[C@@H]3C(=O)O` has measured growth AUC not below 1. Thanks!
Result: 0

Task: Hello, I need to know if `CC(C)c1cc(Oc2ccccc2)cc(C(C)C)c1NC(=S)NC(C)(C)C` has measured growth AUC not below 1. Thanks!
Result: 0

* * *

- System: Bacteroides dorei
- assay_overview: growth AUC relative to DMSO control (median of replicates) (fraction); higher = more growth (less inhibition), active = hit call of the paper
- protocol_conditions: 20 µM; 24 h
Decision: growth AUC >= 1 yields True, all other cases yield False.

Task: Hello, I need to know if `CC(=O)Oc1c(Cl)c(Cl)c(Cl)c(Cl)c1Cl` has measured growth AUC not below 1. Thanks!
Result: False

Task: Hello, I need to know if C=CCOC(Cn1ccnc1)c1ccc(Cl)cc1Cl (configuration not stated) has measured growth AUC not below 1. Thanks!
Result: False

Task: Hello, I need to know if `CC(C)NS(=O)(=O)NC(=O)c1cc(NC(N)=O)c(F)cc1Cl` has measured growth AUC not below 1. Thanks!
Result: False

Task: Hello, I need to know if `Br[C@@H]1CC[C@@H](Br)[C@@H](Br)CC[C@@H](Br)[C@@H](Br)CC[C@H]1Br` has measured growth AUC not below 1. Thanks!
Result: False

Task: Hello, I need to know if COC(=O)C(C)Oc1cc(Cl)c(Cl)cc1Cl (configuration not stated) has measured growth AUC not below 1. Thanks!
Result: True

Task: Hello, I need to know if `COC(=O)c1csc(C)c1S(=O)(=O)NC(=O)n1nc(OC)n(C)c1=O` has measured growth AUC not below 1. Thanks!
Result: False

Task: Hello, I need to know if `CCOC(=O)c1ccc(O)cc1` has measured growth AUC not below 1. Thanks!
Result: False

Task: Hello, I need to know if CC1CN(C2CCCCCCCCCCC2)CC(C)O1 (mixture of isomers) has measured growth AUC not below 1. Thanks!
Result: True

Task: Hello, I need to know if CCCCCC(C)OC(=O)COc1ccc(Cl)c2cccnc12 (configuration not stated) has measured growth AUC not below 1. Thanks!
Result: False

Task: Hello, I need to know if `CCCCOC(=O)[C@@H](C)Oc1ccc(Oc2ccc(C(F)(F)F)cn2)cc1` has measured growth AUC not below 1. Thanks!
Result: False

Could you now consider this next molecule?
Task: Hello, I need to know if `FC(F)(F)/N=C1\SC(=Nc2ccccc2)N(c2ccccc2)\C1=N\C(F)(F)F` has measured growth AUC not below 1. Thanks!
Result: False

Source listed as the supplement of paper PMC12669032.
